# tgt: human ROR2 protein (hROR2, Kactus Biosystems, Cat. No. ROR-HM402) (human, UniProt Q01974 34-403, limits assumed)
# Sequence (Q01974 34-403 limits assumed): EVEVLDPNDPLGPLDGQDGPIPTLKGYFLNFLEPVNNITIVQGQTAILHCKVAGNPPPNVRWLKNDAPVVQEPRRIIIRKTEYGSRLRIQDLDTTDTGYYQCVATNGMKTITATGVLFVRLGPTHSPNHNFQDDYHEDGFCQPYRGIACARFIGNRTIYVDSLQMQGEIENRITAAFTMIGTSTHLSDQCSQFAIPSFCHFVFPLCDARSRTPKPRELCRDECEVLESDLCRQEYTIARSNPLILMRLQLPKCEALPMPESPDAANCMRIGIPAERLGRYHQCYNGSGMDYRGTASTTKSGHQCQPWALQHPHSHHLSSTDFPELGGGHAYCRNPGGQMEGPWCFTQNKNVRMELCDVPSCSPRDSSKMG
# measurement description: ELISA, plate coated with hROR2
assay readout: binding result

>>> endpoint_result("AM3-ZH1 (antibody, human IgG1, kappa, V domains shown) VH: EVQLVESGGGLVQPGGSLRLSCAASGFTFSSYPMSWVRQAPGKGLEWVSSISTGASAYFPDSVKGRFTISRDNAKNSLYLQMNSLRAEDTAVYYCARYTTSTWYFDVWGQGTTVTVSS VL: DIQMTQSPSAMSASVGDRVTITCKASQDIYSYLSWFQQKPGKVPKTLIYRANRLVRGVPSRFSGSGSGQEYTLTISSLQPEDMATYYCLQYDEFPYTFGQGTKLEIKR")
"binds"
